assay: yeast display, Sf9 membrane polyspecificity reagent, FACS + sequencing; frameworks hold sequencing errors
endpointLabel: polyreactivity (PSR sort gate)

| biosequence | observed |
| --- | --- |
| QVQLVESGGGLVQAGGSLRLSCAASGLTFGSYAMGWYRQAPGKERELVAAITWSGGSTYYADSVKGRFTISRDNAKNTVYLQMNSLKPEDTAVYYCAVYSTEYKLLWGGIAYDYWGQGTQVTVSS | low polyreactivity |
| QVQLVESGGGLVQAGGSLRLSCAASGRILNVYAMGWYRQAPGKERELVAAINYRGTNTYYADSVKGRFTISRDNAKNTVYLQMNSLKPEDTADYYCAARRHVYLRGSTFEFNYWGQGTHVTVSS | high polyreactivity |
| QVQLEESRGGLVQAGGSLRLSCAASGFIIKHYAMGWYRQAPRKERELVAAISKRGGSTYYADSVKGRFTISRDNAKNTVYLQMNSLKPEDTAVYYCNAYLYVWHYPSGDEYDYWGQGTQVTVSS | high polyreactivity |
| QVQLQESGGGLLQECGSQRLSCAASGSISEGQDMGWYRRAPGKEREFVAGIAPGATTYYADSVKGRFTISRDNAKNTVYLQMNSLNPEDTAVYYCAARYVTESDHDYWGQVTQVTVSS | low polyreactivity |
| QVQLVESGGGLVQAGGSLRLSCAATGFTFSLYGMGWYRQAPGKERELVAAIRSGGSTNYADSVKGRFTISRDNAKNTVYLQMNSLKPVDTAVYYCATDIHSVHNNRDKHDYDYWGQGTQVTVSS | low polyreactivity |

Lookup result for QVQLVESGGGLVQAGGSLRLSCAASGIIFSGYARGWSRQAPGKERELVAVISSSGGGTYYADSVKGRFTISRDNAKNTVYLHMNSLKPEDTAVYYCAARGREAIHGYWGQGTQVTVSS ; measured polyreactivity (PSR sort gate): high polyreactivity

Item: QVQLVESGGCKVQAGGSLRISCAASGRIFGYYMGWYRQAPGKEREMVARITFRGGSTYYADSVKGRFTNSRDNAKNNVYLQMNSLKPEDTAVYYCNARGKGGSTNRSDYWGQGTQVTVSS | polyreactivity (PSR sort gate): high polyreactivity

The reported polyreactivity (PSR sort gate) of the sequence QVQLVESGGGLVQAGGSLRLSCAASGITFGVYAMGWYRQAPGKERELVAAISSGDSTYYADSVKGRFTISRDNAKNTVYLQMNSLKPEDTAVYYCNAYYGVFYWDAEYGYDYWGQGTQVTVSS was high polyreactivity

The sequence QVQLVESGGGLVQAGGSLRLSCAASGSIFYFYTMGWYRQAPGKERELVASITYSGGRTYYADSVKGRFTISRDNAKNSVYLQMNSLKPEDTAVYYCAVRGYRRYWGQGTQVTVSS showed polyreactivity (PSR sort gate) equal to high polyreactivity

Documented polyreactivity (PSR sort gate) of QVQLVESGGGLVQAGGSLRLSCAASGLIFPTNAMGWYRPAPGKERELVAAISSVGSTYYADSVKGRFTISRDNAKNTVYLQMNSLKPEDTAVYYCAAYWYGSQYKWRYDYWGQGTQVTVSS : low polyreactivity

Form field polyreactivity (PSR sort gate), entry QVQLVETGGGLVQARGSLRLSCAASVSILYGNAMGWYRQAPGKERELVAAISRGGSTYYADSVKGRFTISRDNAKNTVYLQMNSLKPEDTAVYYCNALYTSYYRPSGMGYWGQGTQVTVSS : high polyreactivity
